Taken from patent US5840918A.

- assayed-system: FTase (Bos taurus, UniProt P29702+P49355)
- Construct: bovine brain by inference from the cited Moores et al. 1991
- experimental-details: Inhibition of FTase-mediated prenylation (in vitro prenylation assay)
- condition-details: Table 1; partially purified FTase, 3 μM recombinant H-ras, 440 nM [3H]FPP, 15 min 37° C
assay-readout: IC50 (nM)
Please state the figure in nM; there is no need to write the unit.

Reference set (2 entries):
[[record]]
compound = "COc1ccccc1-c1ccc(C/C=C/C(N)CS)cc1C(=O)N[C@@H](CCSC)C(=O)O (stereo partly shown) [PM142]"
reported_measurement = 8

[[record]]
compound = "CC(C)C(/C=C/[C@@H](/C=C/C(N)CS)C(C)C)C(=O)N[C@@H](CO)C(=O)O (stereo partly shown) [PD202]"
reported_measurement = 17


Challenge: What measured IC50 goes with CSCC[C@H](NCC(/C=C\[C@@H](/C=C/C(N)CS)C(C)C)Cc1ccccc1)C(=O)O (stereo partly shown) [PD431] ?
Response given: 6

Challenge: What measured IC50 goes with CSCC[C@H](NC(=O)C(/C=C\[C@@H](/C=C/[C@@H](N)CS)C(C)C)Cc1ccccc1)C(=O)O (stereo partly shown) [PD331] ?
Response given: 11
